binders and their reported neutralization IC50
tested_system: Env of HIV-1 strain 231965.c1 (HIV-1)
assay_overview: cell-based or functional assay

Some binders with recorded neutralization IC50:
binder: γ59κ18 (antibody, V domains shown) VH: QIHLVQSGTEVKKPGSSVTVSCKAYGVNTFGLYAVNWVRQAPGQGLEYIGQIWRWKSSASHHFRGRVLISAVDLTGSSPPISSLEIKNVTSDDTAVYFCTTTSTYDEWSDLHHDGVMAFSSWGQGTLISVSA VL: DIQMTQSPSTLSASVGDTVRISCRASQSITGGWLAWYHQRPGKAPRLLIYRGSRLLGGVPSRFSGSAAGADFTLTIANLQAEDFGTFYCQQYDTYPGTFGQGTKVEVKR
neutralization IC50: > 15 µg/mL

binder: γ20κ11 (antibody, V domains shown) VH: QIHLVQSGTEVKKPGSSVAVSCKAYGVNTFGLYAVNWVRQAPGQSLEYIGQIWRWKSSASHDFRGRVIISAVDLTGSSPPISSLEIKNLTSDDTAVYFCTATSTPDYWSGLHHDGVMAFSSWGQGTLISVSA VL: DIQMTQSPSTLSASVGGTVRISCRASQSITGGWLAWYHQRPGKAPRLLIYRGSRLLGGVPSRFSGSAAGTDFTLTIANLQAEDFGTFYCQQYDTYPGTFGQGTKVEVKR
neutralization IC50: > 15 µg/mL

As a next step, examine the binder that follows.
Input: Requested read-out: neutralization IC50. Entry: γ22κ11 (antibody, V domains shown) VH: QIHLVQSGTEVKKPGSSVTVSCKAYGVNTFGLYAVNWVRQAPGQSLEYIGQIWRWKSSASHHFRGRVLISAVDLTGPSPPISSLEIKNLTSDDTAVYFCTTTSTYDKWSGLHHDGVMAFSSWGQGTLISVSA VL: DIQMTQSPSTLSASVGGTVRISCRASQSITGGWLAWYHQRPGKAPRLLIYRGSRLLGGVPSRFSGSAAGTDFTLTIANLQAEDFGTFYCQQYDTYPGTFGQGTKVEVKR
Output: > 15 µg/mL
